assay: chemical genetic growth profiling, strain panel (AID 1159580);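 further: tested at 20 µM; growth read once vehicle control cultures reached saturation at 30 °C; 1 = growth at the plate median or of vehicle wells; lower values mean less growth of the strain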; details: S. cerevisiae deletion strains, growth OD, locus YDR101C, strain arx1, active compounds read low
In all, about 5,500 compounds went through this assay and about 2,000 (36%) were called active. Not shown: some 18% with an inconclusive outcome. Some of the results follow.
METRIC: normalized growth
Keep the answer to the number alone.

Solved cases (3 shown):
In [3]: df
Out[3]:
                                   compound             metric  value
0  C[C@@H]1CC[C@@]23CCC4(C)[C@@](C=CC5[C@@]6(C)CCC(=O)C(C)(C)C6CC[C@]54C)(OC2=O)C3[C@H]1C (some centres undefined)  normalized growth   1.01
1           COc1cc(C(=O)N2CCOCC2)cc(OC)c1OC  normalized growth  0.494
2  CC(=O)O[C@@H]1CC2C(C)(C)CCC[C@]2(C)C2CC[C@]3(C)C(=CC(=O)O[C@H]3c3ccoc3)[C@@]21C (some centres undefined)  normalized growth   1.01

I am curious: what normalized growth value has been reported for CC1(C)C(=O)CC[C@@]2(C)C1C[C@@H](O)[C@@]1(C)C3=CC(=O)O[C@@H](c4ccoc4)[C@]3(C)CCC21 (some centres undefined) ? 0.963

Data credit: PubChem BioAssay AID1159580
